PROTOCOL_TEXT: Cytotoxicity against Aedes albopictus NIAS-AeAl-2 cells assessed as reduction in cell viability
Assay type: functional, cell-based
PROPERTY: IC50 (µM)
Answers are plain numbers, in µM.

Some solved cases for reference:
INSERT INTO measurements (structure_string, measured_value) VALUES
  ('COc1ccc(C[C@H]2COC(=O)[C@@H]2Cc2ccccc2O)cc1OC', 17),
  ('COc1ccc(C[C@H]2C(=O)OC[C@@H]2Cc2ccc(OC)c(OC)c2)cc1', 4.3),
  ('COc1ccc(C[C@H]2COC(=S)[C@@H]2Cc2ccc(I)cc2)cc1OC', 2.4);

Provide each entry's IC50 from the list below.
1. COc1ccc(C[C@H]2COC(=O)[C@@H]2Cc2ccc(Cl)cc2)cc1OC
2. COc1cc(C[C@H]2C(=O)OC[C@H]2Cc2ccc(OC)c(OC)c2)ccc1O

[A]
[2.3, 57]

---

PROTOCOL_TEXT: Cytotoxicity against Aedes albopictus NIAS-AeAl-2 cells assessed as reduction in cell viability
Type: functional, cell-based
PROPERTY: IC50 (nM)
Answers are plain numbers, in nM.

INSERT INTO results (molecule, measured_value) VALUES
  ('COc1ccc(C[C@H]2COC(=S)[C@@H]2Cc2cc(F)c(F)c(F)c2)cc1OC', 15000),
  ('COc1ccc(C[C@H]2COC(=O)[C@@H]2Cc2ccc(I)cc2)cc1OC', 2900),
  ('COc1cc(C[C@H]2C(=O)OC[C@@H]2Cc2ccc(OC)c(OC)c2)ccc1O', 730),
  ('COc1ccc(C[C@H]2COC(=O)[C@@H]2Cc2ccc(F)c(F)c2)cc1OC', 13000);

Next molecule, please.
[Q] What does the data say about its IC50? Entry: COc1ccc(C[C@H]2COC(=O)[C@@H]2Cc2ccc3c(c2)OCO3)cc1OC [(-)-KUSUNOKININ]
[A] 2700

---

For each entry below, report its pIC50 value.
PROTOCOL_TEXT: Cytotoxicity against Aedes albopictus NIAS-AeAl-2 cells assessed as reduction in cell viability
Assay type: functional, cell-based
Numbers only, as −log10 of the molar value.

INSERT INTO results (structure_string, property, measured_value) VALUES
  ('COc1cc(C[C@@H]2C(=O)OC[C@H]2Cc2ccc(OC)c(OC)c2)ccc1O', 'pIC50', 4.55),
  ('COc1ccc(C[C@H]2COC(=O)[C@@H]2Cc2ccc(O)cc2)cc1OC', 'pIC50', 6.00),
  ('COc1ccc(C[C@H]2COC(=O)[C@@H]2Cc2ccc(C)cc2)cc1OC', 'pIC50', 5.46),
  ('COc1cc(C[C@@H]2C(=O)OC[C@@H]2Cc2ccc(OC)c(OC)c2)ccc1O', 'pIC50', 5.20),
  ('COc1ccc(C[C@H]2COC(=O)[C@@H]2Cc2ccc(C(F)(F)F)cc2)cc1OC', 'pIC50', 5.00);

[Q] What does the data say about its pIC50? Entry: "COc1ccc(C[C@H]2COC(=O)[C@@H]2Cc2ccc(F)cc2)cc1OC"
[A] 5.08
